# target-desc: HIV-1 ADA envelope glycoprotein (Env), on pseudovirus (HIV-1 isolate ADA)
# procedure-text: cell-based or functional assay
Each record here notes measured IC50 (ug/ml), pseudovirus neutralization, TZM-bl assay.
result-type: IC50 (ug/ml), pseudovirus neutralization, TZM-bl assay

| binder | result |
| --- | --- |
| 1469_M23 (PG16) (TCN-118) (antibody, V domains shown) VH: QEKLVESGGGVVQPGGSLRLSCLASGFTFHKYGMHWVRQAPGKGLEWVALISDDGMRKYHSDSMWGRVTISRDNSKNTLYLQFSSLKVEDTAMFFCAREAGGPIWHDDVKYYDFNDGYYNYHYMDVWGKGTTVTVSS VL: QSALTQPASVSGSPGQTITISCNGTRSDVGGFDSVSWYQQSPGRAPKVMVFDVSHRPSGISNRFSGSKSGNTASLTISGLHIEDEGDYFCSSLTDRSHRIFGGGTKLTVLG | 0.005 µg/mL |
| 1503_H05 (PG16) (TCN-119) (antibody, V domains shown) VH: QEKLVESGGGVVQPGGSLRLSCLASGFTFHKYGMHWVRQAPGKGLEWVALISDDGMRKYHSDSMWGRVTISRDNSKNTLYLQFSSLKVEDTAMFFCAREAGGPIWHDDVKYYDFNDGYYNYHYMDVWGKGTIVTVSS VL: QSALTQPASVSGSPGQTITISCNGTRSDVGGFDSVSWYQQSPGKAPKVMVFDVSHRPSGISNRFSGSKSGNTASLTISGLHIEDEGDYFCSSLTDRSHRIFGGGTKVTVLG | 0.003 µg/mL |
| 1489_I13 (PG16) (TCN-120) (antibody, V domains shown) VH: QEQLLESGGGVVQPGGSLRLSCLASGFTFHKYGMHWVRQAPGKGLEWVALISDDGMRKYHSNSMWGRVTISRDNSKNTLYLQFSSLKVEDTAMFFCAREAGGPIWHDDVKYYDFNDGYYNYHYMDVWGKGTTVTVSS VL: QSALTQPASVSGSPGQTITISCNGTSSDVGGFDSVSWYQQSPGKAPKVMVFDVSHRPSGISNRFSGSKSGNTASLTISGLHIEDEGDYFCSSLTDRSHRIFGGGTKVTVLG | 0.008 µg/mL |
| 1456_A12 (PG16) (TCN-117) (antibody, V domains shown) VH: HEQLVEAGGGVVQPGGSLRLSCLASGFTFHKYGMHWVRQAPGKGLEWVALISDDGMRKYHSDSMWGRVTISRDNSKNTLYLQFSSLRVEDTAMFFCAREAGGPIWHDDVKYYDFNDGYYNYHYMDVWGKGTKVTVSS VL: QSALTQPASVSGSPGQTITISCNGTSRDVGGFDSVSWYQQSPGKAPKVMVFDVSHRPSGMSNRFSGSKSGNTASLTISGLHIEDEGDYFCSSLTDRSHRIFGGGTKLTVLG | 0.005 µg/mL |

Data provenance is patent US20240132578A1.
